tested on: Pseudomonas aeruginosa ATCC27853; format: cell-based; conditions: ATCC27853
readout: MIC P. aeruginosa ATCC 27853 (µg/mL)
Field format: number, assumed µg/mL, no unit text.

Quick check: MIC P. aeruginosa ATCC 27853 on Pseudomonas aeruginosa ATCC27853, item "CC(C)CCCCC(=O)N[C@@H](CCN(CS(=O)(=O)O)CS(=O)(=O)O)C(=O)N[C@H](C(=O)N[C@@H](CCN(CS(=O)(=O)O)CS(=O)(=O)O)C(=O)N[C@H]1CCNC(=O)[C@H]([C@@H](C)O)NC(=O)[C@H](CCN(CS(=O)(=O)O)CS(=O)(=O)O)NC(=O)[C@H](CCN(CS(=O)(=O)O)CS(=O)(=O)O)NC(=O)[C@H](CC(C)C)NC(=O)[C@@H](CC(C)C)NC(=O)[C@H](CCN(CS(=O)(=O)O)CS(=O)(=O)O)NC1=O)[C@@H](C)O" ?
8
